Source: patent US20140162942A1

# System: CYP3A4/5
# ASSAY_OVERVIEW: CYP3A4/5 inhibition, midazolam 1′-hydroxylation in human liver microsomes (IC50 and Ki)
# Format: in vitro ADME
# APPLIED_CONDITIONS: human, pooled human liver microsomes, pH 7.4, probe midazolam (1′-hydroxylation), direct inhibition
READOUT_LABEL: Ki at 5 min (µM)

>>> recorded_value("CC(C)(C)NC(=O)NC(C(=O)N1CC2C([C@H]1C(=O)NC(CC1CCC1)C(=O)C(N)=O)C2(C)C)C(C)(C)C (stereo partly shown)")
7.7

----------
# TGT: CYP2E1 (Homo sapiens, UniProt P05181)
# Construct: Pooled human liver microsomes (from sixteen individuals) were used as the source of enzymes; tissue XenoTech, LLC; host or cells: human liver microsomes, pool of sixteen donors
# Sequence (P05181 whole entry): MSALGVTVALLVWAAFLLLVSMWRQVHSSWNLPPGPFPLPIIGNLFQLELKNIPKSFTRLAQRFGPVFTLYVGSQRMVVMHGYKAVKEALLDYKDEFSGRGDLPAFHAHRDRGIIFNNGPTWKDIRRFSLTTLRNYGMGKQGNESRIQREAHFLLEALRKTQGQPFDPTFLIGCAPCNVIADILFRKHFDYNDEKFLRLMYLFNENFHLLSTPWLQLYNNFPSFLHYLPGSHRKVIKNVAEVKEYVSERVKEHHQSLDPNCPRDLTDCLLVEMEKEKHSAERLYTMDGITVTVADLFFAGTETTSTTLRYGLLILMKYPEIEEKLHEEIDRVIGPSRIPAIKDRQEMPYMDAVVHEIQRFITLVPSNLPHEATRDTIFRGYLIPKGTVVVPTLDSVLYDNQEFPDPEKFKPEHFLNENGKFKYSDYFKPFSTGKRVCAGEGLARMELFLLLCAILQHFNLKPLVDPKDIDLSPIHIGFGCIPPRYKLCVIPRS
# ASSAY_OVERVIEW: CYP2E1 inhibition, chlorzoxazone 6-hydroxylation in human liver microsomes
# Type: in vitro ADME
# APPLIED_CONDITIONS: time-dependent inhibition, 30-minute pre-incubation
pIC50: −log10 of the molar value.
READOUT_LABEL: pIC50

>>> recorded_value("CC(C)(C)NC(=O)NC(C(=O)N1CC2C([C@H]1C(=O)NC(CC1CCC1)C(=O)C(N)=O)C2(C)C)C(C)(C)C (stereo partly shown)")
"< 4.00"
